test: NCI Yeast Anticancer Drug Screen. Data for the rad50 strain (AID 155);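 further: 0% = growth of vehicle-only cultures of the same strain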; conditions: S. cerevisiae rad50 strain growth inhibition; at 50.0 µM (retest, dose inferred, filed as 5.0); active compounds read high
About 79,000 compounds went through this panel and 15% of them were active in at least one assay; those are over-represented in the sample as a whole. Active and inactive are the calls of the source. No stated cut-off is given here; in the data, active means growth inhibition above about 70%; inactive means the rest.
experimental.endpoint: growth inhibition

Some solved cases for reference:
{"compound": "O=C(OCc1ccc2c(c1)OCO2)c1ccc(Cl)cc1", "growth inhibition": "23% (inactive)"}
{"compound": "BrCN(CBr)c1ccc2c(c1)Cc1cc(Br)ccc1-2", "growth inhibition": "-4% (inactive)"}
{"compound": "Cc1ccc(SCc2ccc(Cl)cc2Cl)nn1", "growth inhibition": "64% (inactive)"}
{"compound": "Cc1ccc(O)c(N=Nc2ccc(Cl)cc2)c1", "growth inhibition": "2% (inactive)"}
{"compound": "COc1ccc(C2c3cc4c(cc3OC(O)C2C)OCO4)c(OC)c1 (configuration not stated)", "growth inhibition": "96% (active)"}

Query block: Quickly give me recorded growth inhibition for c1ccc(CC[n+]2csc3ccccc32)cc1
Result block: 73% (active)

Query block: Find the measured growth inhibition of C=C1CC(c2ccc(OCCCN3C(=O)c4ccccc4C3=O)cc2)OC1=O (configuration not stated) and report it.
Result block: 71% (active)

Query block: Respond only with growth inhibition recorded for O=Cc1ccc(O)cc1O
Result block: 24% (inactive)

Query block: Read the entry O=C(Nc1ccccc1)c1ccccc1O and write its reported growth inhibition.
Result block: 93% (active)

Query block: Query growth inhibition for O=[N+]([O-])/C(Cl)=C(\Nc1ccccc1)C(Cl)=C(Cl)Cl
Result block: 99% (active)

Query block: Answer with the recorded growth inhibition of O=Cc1ccc2c(c1)CC1(C2)Cc2ccc3c(c2C1)CCC3 (configuration not stated) only.
Result block: 68% (inactive)

Query block: Tell me growth inhibition reported for Cc1ccc(S(=O)(=O)OCC(/C=N/NC(N)=O)OCOC(C)/C=N/NC(N)=O)cc1 (configuration not stated)
Result block: -7% (inactive)

* * *

assay: NCI Yeast Anticancer Drug Screen. Data for the bub3 strain (AID 167); details: S. cerevisiae bub3 mutant strain, at 50.0 µM, active compounds read high
About 79,000 compounds went through this panel and 15% of them were active in at least one assay; those are over-represented in the sample as a whole. Active and inactive are the calls of the source. No stated cut-off is given here; in the data, active means growth inhibition above about 70%; inactive means the rest.
experimental.endpoint: growth inhibition

Sample answers from the record:
{"chemical.string": "COc1ccc(N=Cc2cc(Br)cc(Br)c2O)cc1.COc1ccc(N=Cc2cc(Br)cc(Br)c2O)cc1.[Co]", "growth inhibition": "62.6% (inactive)"}
{"chemical.string": "CN(C)c1ccccc1CC(c1c[nH]c2ccccc12)c1c[nH]c2ccccc12", "growth inhibition": "85.2% (active)"}
{"chemical.string": "C[C@]12CC[C@@H]3c4ccc(O)cc4CC[C@H]3[C@@H]1CC[C@@H]2NCCCCCCO", "growth inhibition": "-6.1% (inactive)"}
{"chemical.string": "BrCN(CBr)c1ccc2c(c1)Cc1cc(Br)ccc1-2", "growth inhibition": "25.8% (inactive)"}

// next entry
Query block: For O=[N+]([O-])c1ccccc1Oc1ccc([N+](=O)[O-])c(C(F)(F)F)c1 , write its growth inhibition.
Result block: 95.3% (active)

* * *

assay: NCI Yeast Anticancer Drug Screen. Data for the cln2 rad14 strain (AID 165);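 further: 0% = growth equal to vehicle treated cultures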; settings: S. cerevisiae cln2 rad14 strain, at 50.0 µM (retest, dose inferred, filed as 5.0)
The panel holds about 79,000 compounds, 15% with a hit somewhere; the sample as a whole holds those more often. The source made the active and inactive calls. Cut-off read from the data, not from the text of the source: active = growth inhibition above about 70%; inactive = the rest.
In this exercise, the only acceptable responses are active, inactive

{"compound": "Cc1ccc2ccc3ccc(C)nc3c2n1", "answer.label": "active"}

Query block: Hi team, can someone confirm the assay call for CCCCOC(=O)c1nc(N(CC2CCCCC2)C(=O)NC)sc1NC(=O)NC ?
Result block: active

Query block: # outcome recorded in this test, key = C[C@@H]1CN(CC2COc3ccccc3O2)[C@@H](C)CN1CC1COc2ccccc2O1 (stereo partly drawn)
Result block: inactive

Query block: Would you mind telling me which call this test gave CCOc1ccc(C(OC)OC)cc1[N+](=O)[O-] ?
Result block: inactive

Query block: Which outcome was entered for the compound CC1(C)CCC2(C(=O)O)CCC3(C)C(=CCC4C5(C)CC(O)C(O)C(C)(C(=O)O)C5CCC43C)C2C1 (stereo not drawn) in this test?
Result block: active

Query block: For [Pt].c1ccc(P(CCP(CCP(c2ccccc2)c2ccccc2)CCP(c2ccccc2)c2ccccc2)c2ccccc2)cc1 , which call appears in the assay record?
Result block: active

Query block: How did this test come out for CCNc1ccccc1C ?
Result block: active
